test system: Influenza A virus; test: Antiviral activity against Influenza A virus A/PR/8/34 strain incubated with MDCK cells assessed as cell protection after 72 hrs by phenotypic cell protection assay; format: functional, organism-based; conditions: A/Puerto Rico/8/1934(H1N1)
IC50 strictly under 20 nM means Yes; at 20 nM or over means No.

Below, 6 molecules whose answers are already recorded.
molecule	label.value
O=c1[nH]c(=O)n(C[C@H]2C3CCC(CC3)[C@@H]2Nc2nc(-c3c[nH]c4ncc(F)cc34)ncc2F)o1 (mixture of isomers)	No
CC(=O)NS(=O)(=O)[C@H]1C2CCC(CC2)[C@@H]1Nc1nc(-c2c[nH]c3ncc(F)cc23)ncc1F (mixture of isomers)	Yes
NS(=O)(=O)[C@H]1C2CCC(CC2)[C@@H]1Nc1nc(-c2c[nH]c3ncc(F)cc23)ncc1F (mixture of isomers)	Yes
Oc1cc([C@H]2C3CCC(CC3)[C@@H]2Nc2nc(-c3c[nH]c4ncc(F)cc34)ncc2F)no1 (mixture of isomers)	No
Oc1cc([C@H]2C3CCC(CC3)[C@@H]2Nc2nc(-c3c[nH]c4ncc(F)cc34)ncc2F)[nH]n1 (mixture of isomers)	No
Oc1cc([C@H]2C3CCC(CC3)[C@@H]2Nc2nc(-c3c[nH]c4ncc(F)cc34)ncc2F)on1 (mixture of isomers)	Yes

Inquiry: I'd appreciate it if you could check whether CC(O)[C@H]1C2CCC(CC2)[C@@H]1Nc1nc(-c2c[nH]c3ncc(F)cc23)ncc1F (mixture of isomers) has IC50 smaller than 20 nM.
Reply text: No

Inquiry: Problem: For the molecule CNC(=O)[C@H]1C2CCC(CC2)[C@@H]1Nc1nc(-c2c[nH]c3ncc(F)cc23)ncc1F (mixture of isomers) , is IC50 under 20 nM?
Reply text: Yes

Inquiry: Problem: For the molecule O=P(O)(O)CC[C@H]1C2CCC(CC2)[C@@H]1Nc1nc(-c2c[nH]c3ncc(F)cc23)ncc1F (mixture of isomers) , is IC50 under 20 nM?
Reply text: No
